tested on: HEK-293T; assay: Incucyte cell viability with HEK293T; assay type: toxicity, cell-based; conditions: human, 18 h, 10 µM, compound concentration 10 uM, replicate number 2, timepoint 18 hours; further: unitless GR value; below 1 slowed growth and below 0 cell loss
TEST READOUT: Growth Rate

>>> endpoint_result("CC(C)Oc1ccc(-c2nc(-c3cccc4c3CC[C@@H]4NCCO)no2)cc1C#N")
-0.35
>>> endpoint_result("CC(C)(C)c1ccc(S(=O)(=O)Nc2ccc(Cl)cc2C(=O)c2cc[n+]([O-])cc2)cc1")
0.91
>>> endpoint_result("CC[C@H](Nc1ncnc2[nH]cnc12)c1nc2cccc(F)c2c(=O)n1-c1ccccc1")
0.7
>>> endpoint_result("Cc1nc2ccc(Oc3ccc(F)cc3)cc2c(=O)n1C[C@H]1CCCN(C(C)C)C1.Cl")
0.13
>>> endpoint_result("COc1ccncc1C(=O)NC(=O)Nc1ccc(-c2ccccc2)c(C(F)(F)F)c1")
0.86

From: ChEMBL document CHEMBL5058564
